- System: NCI-H841 complex tumor spheroid viability
- method notes: Anticancer human tumor NCI-H841 cell line growth inhibition; active = viability on the fitted dose curve at most 10% of control; inactive = the rest;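 also: spheroids exposed to compounds for 7 days before readout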
- condition set: second compound 31.6 µM; first compound 3.16 µM
Outcome codes: active, inactive

molecule	group label
COc1cc(C)[nH]c(=O)c1CN1CCc2c(Cl)cc(C(OC)C3COC3)c(Cl)c2C1=O (stereo unspecified) + Cn1nnc2c(C(N)=O)ncn2c1=O	inactive
[2H]c1nc(C)nc([2H])c1-c1cc(NC[C@@H](C)c2cccc3c(C(=O)NC)ccnc23)ncn1 + Cn1nnc2c(C(N)=O)ncn2c1=O	inactive
CC1COCCN1c1cc(-c2ccnn2C)c2ccnc(-c3ccn[nH]3)c2n1 (stereo unspecified) + Cn1nnc2c(C(N)=O)ncn2c1=O	active
COc1ccc([C@@H](O)c2cc(-c3ncnc4cc(N5CCOCC5)ccc34)c(F)cc2Cl)nn1 + Cn1nnc2c(C(N)=O)ncn2c1=O	inactive
Cc1cc(C)c(CNC(=O)c2cc(-c3ccc(CN4CCOCC4)cc3)cc3c2cnn3C2CCCC2)c(=O)[nH]1 + Cn1nnc2c(C(N)=O)ncn2c1=O	inactive
CC(C)n1c(=O)n(C)c2cnc3cc(F)c(-c4ccc(OCCCN5CCCCC5)nc4)cc3c21 + Cn1nnc2c(C(N)=O)ncn2c1=O	inactive

----------
- System: NCI-H841 complex tumor spheroid viability
- method notes: Anticancer human tumor NCI-H841 cell line growth inhibition; active = viability on the fitted dose curve at most 10% of control; inactive = the rest;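 also: spheroids exposed to compounds for 7 days before readout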
- condition set: second compound 1 µM; first compound 1 µM
Outcome codes: T = active, F = inactive

compound	group label
CC(C)n1c(=O)n(C)c2cnc3cc(F)c(-c4ccc(OCCCN5CCCCC5)nc4)cc3c21 + Cn1nnc2c(C(N)=O)ncn2c1=O	F
[2H]c1nc(C)nc([2H])c1-c1cc(NC[C@@H](C)c2cccc3c(C(=O)NC)ccnc23)ncn1 + Cn1nnc2c(C(N)=O)ncn2c1=O	F
CC1COCCN1c1cc(-c2ccnn2C)c2ccnc(-c3ccn[nH]3)c2n1 (stereo not given) + Cn1nnc2c(C(N)=O)ncn2c1=O	T
COc1cc(C)[nH]c(=O)c1CN1CCc2c(Cl)cc(C(OC)C3COC3)c(Cl)c2C1=O (stereo not given) + Cn1nnc2c(C(N)=O)ncn2c1=O	F
Cc1cc(C)c(CNC(=O)c2cc(-c3ccc(CN4CCOCC4)cc3)cc3c2cnn3C2CCCC2)c(=O)[nH]1 + Cn1nnc2c(C(N)=O)ncn2c1=O	F

----------
- Test system: NCI-H841 complex tumor spheroid viability
- method notes: Anticancer human tumor NCI-H841 cell line growth inhibition;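 also: spheroids exposed to compounds for 7 days before readout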;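 as to viability, T/C: 100% = DMSO vehicle control wells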
- condition set: second compound 3.16 µM; first compound 0.0949 µM; stronger effect = lower value
Measured viability, T/C, listed per entry.

compound	viability, T/C [%]
Cc1sc2c(c1C)C(c1ccc(Cl)cc1)=NC(CC(=O)Nc1ccc(O)cc1)c1nnc(C)n1-2 (centres undefined) + Cn1nnc2c(C(N)=O)ncn2c1=O	88.9
CNCc1ccc(-c2cc(-c3nc(-c4ccc(S(=O)(=O)C(C)C)cc4)cnc3N)on2)cc1 + Cn1nnc2c(C(N)=O)ncn2c1=O	33
O=C(c1cc(Cc2n[nH]c(=O)c3ccccc23)ccc1F)N1CCN(C(=O)C2CC2)CC1 + Cn1nnc2c(C(N)=O)ncn2c1=O	104
Cn1ncnc1[C@H]1c2n[nH]c(=O)c3cc(F)cc(c23)N[C@@H]1c1ccc(F)cc1 + Cn1nnc2c(C(N)=O)ncn2c1=O	42.8

----------
- Tested on: NCI-H841 complex tumor spheroid viability
- method notes: Anticancer human tumor NCI-H841 cell line growth inhibition;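 also: spheroids exposed to compounds for 7 days before readout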;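 as to viability, T/C: 100% = DMSO vehicle control wells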
- condition set: second compound 0.003 µM; first compound 0.03 µM; stronger effect = lower value
metric: viability, T/C (%)

molecule	metric	measured number
Cc1sc2c(c1C)C(c1ccc(Cl)cc1)=NC(CC(=O)Nc1ccc(O)cc1)c1nnc(C)n1-2 (stereo not drawn) + CC[C@@]1(O)C(=O)OCc2c1cc1n(c2=O)Cc2cc3c(CN(C)C)c(O)ccc3nc2-1	viability, T/C	85
Cc1sc2c(c1C)C(c1ccc(Cl)cc1)=NC(CC(=O)Nc1ccc(O)cc1)c1nnc(C)n1-2 (stereo not drawn) + COc1cc2c(cc1O)CCNC21CSC2c3c(OC(C)=O)c(C)c4c(c3C(COC1=O)N1C(O)C3Cc5cc(C)c(OC)c(O)c5C(C21)N3C)OCO4	viability, T/C	0.12
Cn1ncnc1[C@H]1c2n[nH]c(=O)c3cc(F)cc(c23)N[C@@H]1c1ccc(F)cc1 + COc1cc2c(cc1O)CCNC21CSC2c3c(OC(C)=O)c(C)c4c(c3C(COC1=O)N1C(O)C3Cc5cc(C)c(OC)c(O)c5C(C21)N3C)OCO4	viability, T/C	0.12

----------
- Tested on: NCI-H841 complex tumor spheroid viability
- method notes: Anticancer human tumor NCI-H841 cell line growth inhibition;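 also: spheroids exposed to compounds for 7 days before readout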;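 as to viability, T/C: 100% = DMSO vehicle control wells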
- condition set: second compound 0.0949 µM; first compound 0.949 µM; stronger effect = lower value
metric: viability, T/C (%)

compound	measured number
CNCc1ccc(-c2cc(-c3nc(-c4ccc(S(=O)(=O)C(C)C)cc4)cnc3N)on2)cc1 + CC[C@@]1(O)C(=O)OCc2c1cc1n(c2=O)Cc2cc3c(CN(C)C)c(O)ccc3nc2-1	0.76
O=C(c1cc(Cc2n[nH]c(=O)c3ccccc23)ccc1F)N1CCN(C(=O)C2CC2)CC1 + CC[C@@]1(O)C(=O)OCc2c1cc1n(c2=O)Cc2cc3c(CN(C)C)c(O)ccc3nc2-1	1.52
Cn1ncnc1[C@H]1c2n[nH]c(=O)c3cc(F)cc(c23)N[C@@H]1c1ccc(F)cc1 + CC[C@@]1(O)C(=O)OCc2c1cc1n(c2=O)Cc2cc3c(CN(C)C)c(O)ccc3nc2-1	1.52
Cc1sc2c(c1C)C(c1ccc(Cl)cc1)=NC(CC(=O)Nc1ccc(O)cc1)c1nnc(C)n1-2 (centres undefined) + CC[C@@]1(O)C(=O)OCc2c1cc1n(c2=O)Cc2cc3c(CN(C)C)c(O)ccc3nc2-1	0.62

----------
Measured viability, T/C, listed per entry.
- System: NCI-H841 complex tumor spheroid viability
- method notes: Anticancer human tumor NCI-H841 cell line growth inhibition;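 also: spheroids exposed to compounds for 7 days before readout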;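 as to viability, T/C: 100% = DMSO vehicle control wells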
- condition set: second compound 0.00949 µM; first compound 0.0316 µM; stronger effect = lower value
metric: viability, T/C (%)

compound	measured number
Cc1cc(C)c(CNC(=O)c2cc(-c3ccc(CN4CCOCC4)cc3)cc3c2cnn3C2CCCC2)c(=O)[nH]1 + CC[C@@]1(O)C(=O)OCc2c1cc1n(c2=O)Cc2cc3c(CN(C)C)c(O)ccc3nc2-1	69.6
COc1cc(C)[nH]c(=O)c1CN1CCc2c(Cl)cc(C(OC)C3COC3)c(Cl)c2C1=O (stereo unspecified) + CC[C@@]1(O)C(=O)OCc2c1cc1n(c2=O)Cc2cc3c(CN(C)C)c(O)ccc3nc2-1	82.3
CC1COCCN1c1cc(-c2ccnn2C)c2ccnc(-c3ccn[nH]3)c2n1 (stereo unspecified) + CC[C@@]1(O)C(=O)OCc2c1cc1n(c2=O)Cc2cc3c(CN(C)C)c(O)ccc3nc2-1	1.08
CC(C)n1c(=O)n(C)c2cnc3cc(F)c(-c4ccc(OCCCN5CCCCC5)nc4)cc3c21 + CC[C@@]1(O)C(=O)OCc2c1cc1n(c2=O)Cc2cc3c(CN(C)C)c(O)ccc3nc2-1	4.68
[2H]c1nc(C)nc([2H])c1-c1cc(NC[C@@H](C)c2cccc3c(C(=O)NC)ccnc23)ncn1 + CC[C@@]1(O)C(=O)OCc2c1cc1n(c2=O)Cc2cc3c(CN(C)C)c(O)ccc3nc2-1	83.9
COc1ccc([C@@H](O)c2cc(-c3ncnc4cc(N5CCOCC5)ccc34)c(F)cc2Cl)nn1 + CC[C@@]1(O)C(=O)OCc2c1cc1n(c2=O)Cc2cc3c(CN(C)C)c(O)ccc3nc2-1	83.1

----------
- Tested on: NCI-H841 complex tumor spheroid viability
- method notes: Anticancer human tumor NCI-H841 cell line growth inhibition;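 also: spheroids exposed to compounds for 7 days before readout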;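 as to viability, T/C: 100% = DMSO vehicle control wells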
- condition set: second compound 0.00949 µM; first compound 0.0949 µM; stronger effect = lower value
metric: viability, T/C (%)

molecule	measured number
O=C(c1cc(Cc2n[nH]c(=O)c3ccccc23)ccc1F)N1CCN(C(=O)C2CC2)CC1 + CC[C@@]1(O)C(=O)OCc2c1cc1n(c2=O)Cc2cc3c(CN(C)C)c(O)ccc3nc2-1	19.2
CNCc1ccc(-c2cc(-c3nc(-c4ccc(S(=O)(=O)C(C)C)cc4)cnc3N)on2)cc1 + CC[C@@]1(O)C(=O)OCc2c1cc1n(c2=O)Cc2cc3c(CN(C)C)c(O)ccc3nc2-1	7.71
Cc1sc2c(c1C)C(c1ccc(Cl)cc1)=NC(CC(=O)Nc1ccc(O)cc1)c1nnc(C)n1-2 (centres undefined) + CC[C@@]1(O)C(=O)OCc2c1cc1n(c2=O)Cc2cc3c(CN(C)C)c(O)ccc3nc2-1	27.9
Cn1ncnc1[C@H]1c2n[nH]c(=O)c3cc(F)cc(c23)N[C@@H]1c1ccc(F)cc1 + CC[C@@]1(O)C(=O)OCc2c1cc1n(c2=O)Cc2cc3c(CN(C)C)c(O)ccc3nc2-1	2.55

----------
- System: NCI-H841 complex tumor spheroid viability
- method notes: Anticancer human tumor NCI-H841 cell line growth inhibition;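 also: spheroids exposed to compounds for 7 days before readout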
- condition set: curve of first compound; second compound 100 µM
pIC50: −log10 of the molar value.
Measured pIC50, listed per entry.
metric: pIC50

molecule	metric	censoring operator	measured number
[2H]c1nc(C)nc([2H])c1-c1cc(NC[C@@H](C)c2cccc3c(C(=O)NC)ccnc23)ncn1 + Cn1nnc2c(C(N)=O)ncn2c1=O	pIC50	<	5.00
O=C(c1cc(Cc2n[nH]c(=O)c3ccccc23)ccc1F)N1CCN(C(=O)C2CC2)CC1 + Cn1nnc2c(C(N)=O)ncn2c1=O	pIC50	>	7.02
Cc1sc2c(c1C)C(c1ccc(Cl)cc1)=NC(CC(=O)Nc1ccc(O)cc1)c1nnc(C)n1-2 (configuration not stated) + Cn1nnc2c(C(N)=O)ncn2c1=O	pIC50	=	6.57
CC(C)n1c(=O)n(C)c2cnc3cc(F)c(-c4ccc(OCCCN5CCCCC5)nc4)cc3c21 + Cn1nnc2c(C(N)=O)ncn2c1=O	pIC50	=	5.41
COc1cc(C)[nH]c(=O)c1CN1CCc2c(Cl)cc(C(OC)C3COC3)c(Cl)c2C1=O (configuration not stated) + Cn1nnc2c(C(N)=O)ncn2c1=O	pIC50	=	6.40
Cn1ncnc1[C@H]1c2n[nH]c(=O)c3cc(F)cc(c23)N[C@@H]1c1ccc(F)cc1 + Cn1nnc2c(C(N)=O)ncn2c1=O	pIC50	>	8.02
CC1COCCN1c1cc(-c2ccnn2C)c2ccnc(-c3ccn[nH]3)c2n1 (configuration not stated) + Cn1nnc2c(C(N)=O)ncn2c1=O	pIC50	>	7.50
